# ASSAYED_SYSTEM: Kv1.3 potassium channel (Homo sapiens)
# Construct: expressed in transfected cells
# ASSAY_REMARKS: Kv1.3 potassium channel blocker activity, automated whole-cell patch clamp (Patchliner) in CHO-K1 cells stably expressing Kv1.3
# Assay type: cell-based
# SETTINGS: CHO-K1 cells stably expressing Kv1.3; patch clamp, current inhibition; read-out: Kv1.3 IC50
# Experimental: Example 82. Evaluation of Kv1.3 potassium channel blocker activities This assay is used to evaluate the disclosed compounds' activities as Kv1.3 potassium channel blockers. CHO-K1 cells stably expressing Kv1.3 were grown in DMEM containing 10% heat-inactivated FBS, 1 mM sodium pyruvate, 2 mM L-glutamine, and G418 (500 μg/ml). All compounds were dissolved in DMSO at 30 mM. […]
pIC50: −log10 of the molar value.
Known pIC50 of a selection of molecules

MOLECULE	pIC50
NC(=O)[C@@H]1C[C@H](c2c(O)ccc(Cl)c2Cl)CCN1 (single isomer, unassigned)	> 6.00
NC(=O)[C@@H]1C[C@H](c2c(O)cc(Cl)c(Cl)c2Cl)CCN1 (single isomer, unassigned)	> 6.00
Oc1cc(Cl)c(Cl)cc1C1CCCNC1 (stereo not shown)	> 6.00
Oc1ccc(C2CC2)c(Cl)c1C1CCNCC1	> 4.52

---

# IC50 per entry
# ASSAYED_SYSTEM: UniProtKB Q12809
# Sequence (Q12809 whole entry): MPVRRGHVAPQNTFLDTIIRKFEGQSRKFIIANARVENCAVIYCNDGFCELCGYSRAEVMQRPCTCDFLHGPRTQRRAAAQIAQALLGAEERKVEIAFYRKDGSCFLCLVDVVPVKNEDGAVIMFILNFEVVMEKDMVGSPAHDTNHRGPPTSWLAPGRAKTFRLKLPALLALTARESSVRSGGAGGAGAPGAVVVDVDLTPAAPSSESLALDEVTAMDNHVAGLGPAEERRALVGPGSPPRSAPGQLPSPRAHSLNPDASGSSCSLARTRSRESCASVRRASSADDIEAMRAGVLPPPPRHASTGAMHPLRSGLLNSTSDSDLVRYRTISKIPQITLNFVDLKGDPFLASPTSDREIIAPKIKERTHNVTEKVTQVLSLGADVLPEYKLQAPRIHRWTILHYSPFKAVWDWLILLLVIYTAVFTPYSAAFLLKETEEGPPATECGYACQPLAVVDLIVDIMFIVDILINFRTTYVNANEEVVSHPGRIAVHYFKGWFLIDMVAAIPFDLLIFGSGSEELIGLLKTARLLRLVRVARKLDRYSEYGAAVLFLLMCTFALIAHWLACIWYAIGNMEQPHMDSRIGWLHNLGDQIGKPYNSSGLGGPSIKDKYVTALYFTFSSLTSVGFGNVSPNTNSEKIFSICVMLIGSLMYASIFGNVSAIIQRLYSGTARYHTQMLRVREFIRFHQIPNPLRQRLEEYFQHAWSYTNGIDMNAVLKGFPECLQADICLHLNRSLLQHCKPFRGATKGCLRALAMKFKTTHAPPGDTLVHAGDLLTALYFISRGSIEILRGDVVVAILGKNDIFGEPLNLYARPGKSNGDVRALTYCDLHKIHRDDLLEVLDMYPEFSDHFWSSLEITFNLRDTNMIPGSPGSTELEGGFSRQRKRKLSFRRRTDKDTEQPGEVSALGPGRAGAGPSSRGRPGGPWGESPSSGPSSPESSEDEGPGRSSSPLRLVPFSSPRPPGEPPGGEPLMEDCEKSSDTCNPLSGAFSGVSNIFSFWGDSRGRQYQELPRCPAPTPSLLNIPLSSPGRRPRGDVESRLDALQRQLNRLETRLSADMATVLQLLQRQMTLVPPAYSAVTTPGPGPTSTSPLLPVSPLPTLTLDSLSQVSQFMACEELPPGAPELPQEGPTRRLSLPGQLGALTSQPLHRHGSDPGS
# ASSAY_REMARKS: hERG electrophysiology, automated whole-cell patch clamp (Patchliner) in CHO-K1 cells stably expressing hERG

COMPOUND	ASSAYED_SYSTEM	IC50
OCC1CC(c2cc(Cl)c(Cl)cc2O)CN1 (centres unmarked) [Compound 36]	UniProtKB Q12809	< 30 µM
NC(=O)C1CC(c2c(O)cc(Cl)c(Cl)c2Cl)CCN1 (centres unmarked) [Compound 61]	UniProtKB Q12809	< 30 µM
Oc1cc(Cl)c(Cl)cc1C1CCNC1 (centres unmarked) [Compound 21, 4,5-dichloro-2-(pyrrolidin-3-yl)phenol]	UniProtKB Q12809	< 30 µM
CS(=O)(=O)NCC1CC(c2c(O)ccc(Cl)c2Cl)CCN1 (centres unmarked) [Compound 100]	UniProtKB Q12809	> 30 µM
O=C(C[C@H]1C[C@@H](c2c(O)ccc(Cl)c2Cl)CCN1)NC1CCC1 (relative stereo) [Compound 111]	UniProtKB Q12809	< 30 µM
Oc1cc(Cl)c(Cl)cc1C1CCNC1 (single isomer, unassigned) [Compound 38, 4,5-dichloro-2-(pyrrolidin-3-yl)phenol]	UniProtKB Q12809	< 30 µM
Nc1nnc([C@@H]2C[C@H](c3c(O)ccc(Cl)c3Cl)CCN2)o1 (single isomer, unassigned) [Compound 105]	UniProtKB Q12809	> 30 µM
O=C([C@H]1CCNC1)N1CCC(c2c(O)cc(Cl)c(Cl)c2Cl)CC1 [Compound 91]	UniProtKB Q12809	< 30 µM

---

# ASSAYED_SYSTEM: Kv1.3 potassium channel (Homo sapiens, UniProt P22001)
# Construct: expressed in transfected cells
# Sequence (P22001 whole entry): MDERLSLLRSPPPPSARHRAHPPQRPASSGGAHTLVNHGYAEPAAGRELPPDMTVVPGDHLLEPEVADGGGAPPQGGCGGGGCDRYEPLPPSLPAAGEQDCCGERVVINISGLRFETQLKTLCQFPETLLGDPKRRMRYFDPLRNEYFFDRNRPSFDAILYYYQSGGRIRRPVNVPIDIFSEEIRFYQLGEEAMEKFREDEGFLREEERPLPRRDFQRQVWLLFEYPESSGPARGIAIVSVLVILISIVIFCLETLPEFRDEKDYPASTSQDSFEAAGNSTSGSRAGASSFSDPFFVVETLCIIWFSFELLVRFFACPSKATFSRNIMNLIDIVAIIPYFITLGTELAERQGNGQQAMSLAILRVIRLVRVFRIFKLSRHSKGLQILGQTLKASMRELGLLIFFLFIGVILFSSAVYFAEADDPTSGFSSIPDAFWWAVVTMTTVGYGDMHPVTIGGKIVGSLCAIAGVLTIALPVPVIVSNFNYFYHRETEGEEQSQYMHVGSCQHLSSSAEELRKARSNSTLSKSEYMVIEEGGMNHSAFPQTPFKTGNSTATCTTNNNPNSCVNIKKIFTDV
# ASSAY_REMARKS: Kv1.3 potassium channel blocker activity, automated whole-cell patch clamp (Patchliner) in CHO-K1 cells stably expressing Kv1.3
# Assay type: cell-based
# SETTINGS: CHO-K1 cells stably expressing Kv1.3; patch clamp, current inhibition; read-out: Kv1.3 IC50
pIC50: −log10 of the molar value.

COMPOUND	ASSAYED_SYSTEM	pIC50
Oc1cc(Cl)c(Cl)cc1[C@@H]1CCNC[C@H]1O (relative stereo) [Compound 7]	Kv1.3 potassium channel (Homo sapiens, UniProt P22001)	> 5.00
NC(=O)NCC1CC(c2c(O)ccc(Cl)c2Cl)CCN1 (stereo not drawn) [Compound 102]	Kv1.3 potassium channel (Homo sapiens, UniProt P22001)	> 6.00
O=C1NCCC12CC(c1c(O)ccc(Cl)c1Cl)CCN2 (stereo not drawn) [Compound 87]	Kv1.3 potassium channel (Homo sapiens, UniProt P22001)	> 5.00
NC[C@H]1CNCC[C@H]1c1cc(Cl)c(Cl)cc1O (relative stereo) [Compound 47]	Kv1.3 potassium channel (Homo sapiens, UniProt P22001)	> 4.52
N[C@@H]1CNCC[C@H]1c1cc(Cl)c(Cl)cc1O (relative stereo) [Compound 49]	Kv1.3 potassium channel (Homo sapiens, UniProt P22001)	> 5.00
NC(=O)[C@@H]1CN(c2c(O)ccc(Cl)c2Cl)CCN1 [Compound 92]	Kv1.3 potassium channel (Homo sapiens, UniProt P22001)	> 5.00
CNC(=O)C[C@H]1C[C@@H](c2c(O)ccc(Cl)c2Cl)CCN1 (single isomer, unassigned) [Compound 30]	Kv1.3 potassium channel (Homo sapiens, UniProt P22001)	> 6.00
NC(=O)CC1CC(c2c(O)ccc(Cl)c2Cl)CCN1 (stereo not drawn) [Compound 101]	Kv1.3 potassium channel (Homo sapiens, UniProt P22001)	> 6.00
O=S1(=O)CCCN1CC1CC(c2c(O)ccc(Cl)c2Cl)CCN1 (stereo not drawn) [Compound 112]	Kv1.3 potassium channel (Homo sapiens, UniProt P22001)	> 6.00
Nc1nnc(C2CC(c3c(O)ccc(Cl)c3Cl)CCN2)o1 (stereo not drawn) [Compound 99]	Kv1.3 potassium channel (Homo sapiens, UniProt P22001)	> 6.00
Oc1cc(Cl)c(Cl)cc1C1CCNC(C2CC2)C1 (stereo not drawn) [Compound 43]	Kv1.3 potassium channel (Homo sapiens, UniProt P22001)	> 6.00
NC(=O)C1CNC[C@H]1c1cc(Cl)c(Cl)cc1O (stereo in doubt) [Compound 64]	Kv1.3 potassium channel (Homo sapiens, UniProt P22001)	> 5.00
O=C(NC1CNC1)C1CCC(c2c(O)ccc(Cl)c2Cl)NC1 (stereo not drawn) [Compound 125]	Kv1.3 potassium channel (Homo sapiens, UniProt P22001)	> 5.00
O=S(=O)(NCC1CC(c2c(O)ccc(Cl)c2Cl)CCN1)c1ccccc1 (stereo not drawn) [Compound 94]	Kv1.3 potassium channel (Homo sapiens, UniProt P22001)	> 6.00
NC(=O)C1CC(c2c(O)cc(Cl)c(Cl)c2Cl)CCN1 (stereo not drawn) [Compound 61]	Kv1.3 potassium channel (Homo sapiens, UniProt P22001)	> 6.00
Oc1cc(Cl)c(Cl)cc1C1=CCNC1 [Compound 20]	Kv1.3 potassium channel (Homo sapiens, UniProt P22001)	> 5.00
O=C(C[C@@H]1C[C@H](c2c(O)ccc(Cl)c2Cl)CCN1)N1CCOCC1 (single isomer, unassigned) [Compound 32]	Kv1.3 potassium channel (Homo sapiens, UniProt P22001)	> 6.00
NC(=O)[C@@H]1CNC[C@H]1c1cc(Cl)c(Cl)cc1O (relative stereo) [Compound 52]	Kv1.3 potassium channel (Homo sapiens, UniProt P22001)	> 5.00

---

# ASSAYED_SYSTEM: Kv1.3 potassium channel (Homo sapiens)
# Construct: expressed in transfected cells
# ASSAY_REMARKS: Kv1.3 potassium channel blocker activity, automated whole-cell patch clamp (Patchliner) in CHO-K1 cells stably expressing Kv1.3
# Format: cell-based
# SETTINGS: CHO-K1 cells stably expressing Kv1.3; patch clamp, current inhibition; read-out: Kv1.3 IC50
pIC50: −log10 of the molar value.
Item-by-item account of pIC50
MEASUREMENT_LABEL: pIC50

COMPOUND	MEASUREMENT_LABEL	VALUE_OBSERVED
CNC(=O)C[C@@H]1C[C@H](c2c(O)ccc(Cl)c2Cl)CCN1 (single isomer, unassigned) [Compound 14]	pIC50	> 6.00
NCC1CCN(c2cc(Cl)c(Cl)cc2O)CC1 [Compound 28]	pIC50	> 6.00
NC(=O)[C@H]1CN(c2c(O)cc(Cl)c(Cl)c2Cl)CCN1 [Compound 96]	pIC50	> 6.00
COC(=O)[C@@H]1CNC[C@H]1c1cc(Cl)c(Cl)cc1O (relative stereo) [Compound 53]	pIC50	> 5.00

---

# ASSAYED_SYSTEM: Kv1.3 potassium channel (Homo sapiens, UniProt P22001)
# Construct: expressed in transfected cells
# ASSAY_REMARKS: Kv1.3 potassium channel blocker activity, automated whole-cell patch clamp (Patchliner) in CHO-K1 cells stably expressing Kv1.3
# Type: cell-based
# SETTINGS: CHO-K1 cells stably expressing Kv1.3; patch clamp, current inhibition; read-out: Kv1.3 IC50
MEASUREMENT_LABEL: IC50

MOLECULE	VALUE_OBSERVED
NC(=O)[C@H]1CNCC[C@H]1c1cc(Cl)c(Cl)cc1O (single isomer, unassigned) [Compound 42]	< 1 µM
CN(C)C1CCN(c2cc(Cl)c(Cl)cc2O)CC1 [Compound 23]	< 1 µM
O=C([C@H]1CCNC1)N1CCC(c2c(O)cc(Cl)c(Cl)c2Cl)CC1 [Compound 91]	< 1 µM
CC(=O)NC[C@@H]1CC(c2c(O)ccc(Cl)c2Cl)CCN1 (single isomer, unassigned) [Compound 89]	< 1 µM
CC(=O)N1CCC(c2cc(Cl)c(Cl)cc2O)CC1 [Compound 10]	< 10 µM
